test: Lipophilicity, log D of compound at pH 7.4 by chromatographic method; assay type: physicochemical; conditions: buffer
Measure: chromatographic logD
Form rule: numeric answer, no unit written next to it.

Some compounds with recorded chromatographic logD:
INSERT INTO measurements (compound, value) VALUES
  ('CC1(c2ccc(S(N)(=O)=O)cc2)NC(=O)N(CC(=O)c2ccc(Cl)s2)C1=O (racemic)', 3.52),
  ('CC(=O)CN1C(=O)NC(C)(c2ccc(S(N)(=O)=O)cc2)C1=O (racemic)', 0.54),
  ('CC1(c2ccc(S(N)(=O)=O)cc2)NC(=O)N(CC(=O)c2cccc(Br)c2)C1=O (racemic)', 3.77),
  ('CC1(c2ccc(S(=O)(=O)N3CCOCC3)cc2)NC(=O)N(CC(=O)c2ccc(F)cc2F)C1=O (racemic)', 4.39),
  ('COC(=O)c1ccc(C2(C)NC(=O)N(CC(=O)c3ccc(F)cc3F)C2=O)cc1 (racemic)', 4.84);

(Q) Requested field: chromatographic logD. Item: CC1(c2ccc(S(N)(=O)=O)cc2)NC(=O)N(CC(=O)c2ccccc2)C1=O (racemic)
(A) 2.81

(Q) Try this compound too: CC1(c2ccc(S(=O)(=O)NC3CC3)cc2)NC(=O)N(CC(=O)c2ccc(F)cc2F)C1=O (racemic)
(A) 4.48

(Q) Try this compound too: CC1(c2ccc(S(N)(=O)=O)cc2)NC(=O)N(CC(=O)c2ccccc2F)C1=O (racemic)
(A) 2.94

----------
assay: Lipophilicity, log D of compound at pH 7.4 by chromatographic method; assay type: physicochemical; settings: buffer
Measure: chromatographic logD
Form rule: numeric answer, no unit written next to it.

Some compounds with recorded chromatographic logD:
INSERT INTO results (compound, measure, value) VALUES
  ('CC1(c2ccc(S(N)(=O)=O)cc2)NC(=O)N(CC(=O)c2ccc(F)c(C(F)(F)F)c2)C1=O (racemic)', 'chromatographic logD', 4.24),
  ('CC1(c2ccc(S(N)(=O)=O)cc2)NC(=O)N(CC(=O)c2ccc(C#N)cc2)C1=O (racemic)', 'chromatographic logD', 2.54);

(Q) Requested field: chromatographic logD. Item: Cc1ccccc1C(=O)CN1C(=O)NC(C)(c2ccc(S(N)(=O)=O)cc2)C1=O (racemic)
(A) 3.3

(Q) Try this compound too: CC1(c2ccc(C#N)cc2)NC(=O)N(CC(=O)c2ccccc2F)C1=O (racemic)
(A) 4.3

----------
test: Lipophilicity, log D of compound at pH 7.4 by chromatographic method; type: physicochemical; conditions: buffer
Use chromatographic logD to assign classes; range list: class 0 = under 3, class 1 = from 3 up to 4, class 2 = 4 and over

Look over these answered cases.
INSERT INTO assay_data (compound, class) VALUES
  ('CC1(c2ccc(S(=O)(=O)Nc3ccccc3)cc2)NC(=O)N(CC(=O)c2ccc(F)cc2F)C1=O (racemic)', 'class 2'),
  ('CC1(c2ccc(C#N)cc2)NC(=O)N(CC(=O)c2cccc(F)c2)C1=O (racemic)', 'class 2'),
  ('CC1(c2ccc(S(N)(=O)=O)cc2)NC(=O)N(CC(=O)c2ccc(F)cc2F)C1=O (racemic)', 'class 1'),
  ('CNS(=O)(=O)c1ccc(C2(C)NC(=O)N(CC(=O)c3ccc(F)cc3F)C2=O)cc1 (racemic)', 'class 1'),
  ('CC1(c2ccc(S(N)(=O)=O)cc2)NC(=O)N(CC(=O)c2nccs2)C1=O (racemic)', 'class 0');

(Q) Which chromatographic logD category applies to CC1(c2ccc(C(N)=O)cc2)NC(=O)N(CC(=O)c2ccc(F)cc2F)C1=O (racemic) here?
(A) class 0

(Q) Try this compound too: CC1(c2ccc(C#N)cc2)NC(=O)N(CC(=O)c2ccccc2)C1=O (racemic)
(A) class 2

(Q) Try this compound too: CC(C)(C)C(=O)Oc1cc(F)ccc1C(=O)CN1C(=O)NC(C)(c2ccc(C#N)cc2)C1=O (racemic)
(A) class 2

----------
experiment: Lipophilicity, log D of compound at pH 7.4 by chromatographic method; type: physicochemical; conditions: buffer
Consider the following compounds and their measured chromatographic logD readings.

Some compounds with recorded chromatographic logD:
INSERT INTO results (compound, measure, value) VALUES
  ('CC1(c2ccc(S(N)(=O)=O)cc2)NC(=O)N(CC(=O)C23CC4CC(CC(C4)C2)C3)C1=O (racemic)', 'chromatographic logD', 2.52),
  ('CC1(c2ccc(S(N)(=O)=O)cc2)NC(=O)N(CC(=O)c2cccc(C#N)c2)C1=O (racemic)', 'chromatographic logD', 2.4);

(Q) Requested field: chromatographic logD. Item: CC1(c2ccc(S(N)(=O)=O)cc2)NC(=O)N(CC(=O)c2cccc([N+](=O)[O-])c2)C1=O (racemic)
(A) 2.77

(Q) Try this compound too: Cc1cccc(C(=O)CN2C(=O)NC(C)(c3ccc(C#N)cc3)C2=O)c1 (racemic)
(A) 4.71

(Q) Try this compound too: CC1(c2ccc(NS(=O)(=O)c3ccccc3)cc2)NC(=O)N(CC(=O)c2ccc(F)cc2F)C1=O (racemic)
(A) 4.9

(Q) Try this compound too: CC1(c2ccc(S(N)(=O)=O)cc2)NC(=O)N(CC(=O)c2cc(C(F)(F)F)cc(C(F)(F)F)c2)C1=O (racemic)
(A) 4.9

(Q) Try this compound too: CC1(c2ccc(NC(N)=O)cc2)NC(=O)N(CC(=O)c2ccc(F)cc2F)C1=O (racemic)
(A) 2.71

(Q) Try this compound too: Cc1cccc(C(=O)CN2C(=O)NC(C)(c3ccc(S(N)(=O)=O)cc3)C2=O)c1 (racemic)
(A) 3.36

----------
assay: Cmax in C57BL/6J mouse blood infected with Mycobacterium tuberculosis H37Rv at 170 mg/kg, po administered once daily for 4 consecutive days starting from 5 days post infection; type: ADME, organism-based; design: dose 170 mg/kg, route oral
Measure: Cmax (ng/mL)
Respond with the bare value in ng/mL.

(Q) Requested field: Cmax. Item: CC1(c2ccc(-n3cnnn3)cc2)NC(=O)N(CC(=O)c2ccc(F)cc2F)C1=O (stereo unspecified)
(A) 1870

----------
test: Lipophilicity, log D of compound at pH 7.4 by chromatographic method; format: physicochemical; details: buffer
Threshold check on chromatographic logD: at or above 3 gives T, strictly below gives F.

INSERT INTO measurements (compound, class) VALUES
  ('CC1(c2ccc(S(N)(=O)=O)cc2)NC(=O)N(CC(=O)c2ccc(F)c(F)c2)C1=O (racemic)', 'T'),
  ('CN(C)S(=O)(=O)c1ccc(C2(C)NC(=O)N(CC(=O)c3ccc(F)cc3F)C2=O)cc1 (racemic)', 'T'),
  ('CC1(c2ccc(S(N)(=O)=O)cc2)NC(=O)N(CC(=O)C2CC2)C1=O (racemic)', 'F'),
  ('CC1(c2ccc(S(N)(=O)=O)cc2)NC(=O)N(CC(=O)c2ccncc2)C1=O (racemic)', 'F'),
  ('CC1(c2ccc(S(N)(=O)=O)cc2)NC(=O)N(CC(=O)c2cccs2)C1=O (racemic)', 'F');

Turning now to a further record.
(Q) Is chromatographic logD at least 3? Consider CC1(c2ccc(C#N)cc2)NC(=O)N(CC(=O)c2cccnc2)C1=O (racemic)
(A) F

----------
assay: Lipophilicity, log D of compound at pH 7.4 by chromatographic method; type: physicochemical; conditions: buffer
Threshold check on chromatographic logD: at or above 4 gives MET, strictly below gives NOT MET.

(Q) Is chromatographic logD at least 4? Consider CC1(c2ccc(S(N)(=O)=O)cc2)NC(=O)N(CC(=O)c2ccccn2)C1=O (racemic)
(A) MET

(Q) Try this compound too: CC1(c2ccc(CS(C)(=O)=O)cc2)NC(=O)N(CC(=O)c2ccc(F)cc2F)C1=O (racemic)
(A) NOT MET

(Q) Try this compound too: CC1(c2ccc(S(N)(=O)=O)cc2)NC(=O)N(CC(=O)c2ccc(F)cc2)C1=O (racemic)
(A) NOT MET

(Q) Try this compound too: CC1(c2ccc(C#N)cc2)NC(=O)N(CC(=O)c2cccc(OC(F)(F)F)c2)C1=O (racemic)
(A) MET

(Q) Try this compound too: CC1(c2ccc(S(N)(=O)=O)cc2)NC(=O)N(CC(=O)c2cccc(OC(F)(F)F)c2)C1=O (racemic)
(A) MET

(Q) Try this compound too: CC1(c2ccc(S(=O)(=O)NCC(F)(F)F)cc2)NC(=O)N(CC(=O)c2ccc(F)cc2F)C1=O (racemic)
(A) MET

(Q) Try this compound too: CC1(c2ccc(S(N)(=O)=O)cc2)NC(=O)N(CC(=O)c2ccc(C(F)(F)F)cc2)C1=O (racemic)
(A) MET

----------
Consider the following compounds and their measured chromatographic logD readings.
assay: Lipophilicity, log D of compound at pH 7.4 by chromatographic method; assay type: physicochemical; settings: buffer
Form rule: numeric answer, no unit written next to it.

Some compounds with recorded chromatographic logD:
INSERT INTO measurements (compound, measure, value) VALUES
  ('CC1(c2ccc(S(N)(=O)=O)cc2)NC(=O)N(CC(=O)c2ccc(Cl)cc2Cl)C1=O (racemic)', 'chromatographic logD', 4.11),
  ('CC1(c2ccc(C#N)cc2)NC(=O)N(CC(=O)c2ccccn2)C1=O (racemic)', 'chromatographic logD', 2.03),
  ('CC1(c2ccc(S(N)(=O)=O)cc2)NC(=O)N(CC(=O)c2ncc(F)cc2F)C1=O (racemic)', 'chromatographic logD', 2.39),
  ('CC1(c2ccc(S(N)(=O)=O)cc2)NC(=O)N(CC(=O)C2CCCCC2)C1=O (racemic)', 'chromatographic logD', 3.62);

(Q) Requested field: chromatographic logD. Item: C[C@@]1(c2ccc(S(N)(=O)=O)cc2)NC(=O)N(CC(=O)c2ccc(F)cc2F)C1=O
(A) 3.17

(Q) Try this compound too: CC1(c2ccc(N3CCCOC3=O)cc2)NC(=O)N(CC(=O)c2ccc(F)cc2F)C1=O (racemic)
(A) 3.36

(Q) Try this compound too: CC1(c2ccc(C(=O)O)cc2)NC(=O)N(CC(=O)c2ccc(F)cc2F)C1=O (racemic)
(A) 1.49

(Q) Try this compound too: CC1(c2ccc(NS(=O)(=O)C(F)(F)F)cc2)NC(=O)N(CC(=O)c2ccc(F)cc2F)C1=O (racemic)
(A) 3.24

(Q) Try this compound too: Cc1ccc(C(=O)CN2C(=O)NC(C)(c3ccc(C#N)cc3)C2=O)cc1 (racemic)
(A) 4.73

(Q) Try this compound too: COc1ccc(C(=O)CN2C(=O)NC(C)(c3ccc(S(N)(=O)=O)cc3)C2=O)cc1 (racemic)
(A) 2.86

Where do these numbers come from? They come from ChEMBL document CHEMBL4402609.
